Provenance of the data: PubChem BioAssay (NCATS)

# test_description: Quantitative highthroughput screen to assess conditional lethalithy of NOMO1 cells grown in RPMI1640 with dialyzed fetal bovine serum (RPMI+ds) (AID 1963877); note: nearly all actives have a fitted effect of over 30% in size;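 for viability: 100% = DMSO control wells and 0% = empty wells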
# cond: NOMO1 in RPMI+dialyzed FBS viability, ATP luminescence, 48 h; series mostly up to 45.8 µM
Results filed as inconclusive are left out. Activity calls are given as the source filed them. Calls come from the whole dose curve; as a rule, active = well fitted cell-killing curve with a large enough effect; inconclusive = small, poorly fitted or top-dose-only effect; inactive = flat fitted curve, though single readings scatter.
Valid outcomes are listed here; reply with one: true (1) (active), false (0) (inactive)

Use these answered entries as a reference point.
molecule	group
O=S(=O)(F)Cc1ccccc1	false (0)
CC1=NN=C(c2ccc(N)cc2)c2cc3c(cc2C1)OCO3	false (0)
Cc1nc(-c2ccc(-c3ccc(C(=O)N4CCc5cc6c(cc54)C4(CCN(C)CC4)CO6)cc3)c(C)c2)no1	false (0)
C[C@@H]1[C@H](O)[C@@H](C)C=CC=CCCC=CC=CC=CC=C[C@H](O[C@H]2O[C@@H](C)[C@H](O)[C@@H](N)[C@@H]2O)CC2O[C@](O)(C[C@@H](O)[C@H](O)CC[C@@H](O)C[C@@H](O)C[C@@H](O)CC(=O)O[C@H]1C)C[C@H](O)[C@H]2C(=O)O	false (0)

Query block: I'd appreciate the recorded outcome for CN[C@@H]1Cc2cccc3[nH]c(=O)n(c23)C1 from this test.
Result block: false (0)

Query block: # fetch the recorded call for O=C(NCC1CCOCC1)c1cnc(Nc2ccc(Cl)cc2Cl)nc1C(F)(F)F here
Result block: false (0)

Query block: For CCNC(=O)C[C@@H]1N=C(c2ccc(Cl)cc2)c2cc(OC)ccc2-n2c(C)nnc21 , which call appears in the assay record?
Result block: true (1)

Query block: Outcome? Fc1ccc(C(OCCN2CCN(CCCc3ccccc3)CC2)c2ccc(F)cc2)cc1
Result block: true (1)

Query block: I'd appreciate the recorded outcome for CCNC(=O)CC1N=C(c2ccc(Cl)cc2)c2cc(OC)ccc2-n2c(C)nnc21 (centres undefined) from this test.
Result block: false (0)
